# EXPERIMENT: Tissue residue depletion in goats (LC-MS/MS)
# Format: in vivo, goats (Capra hircus)
# APPLIED_CONDITIONS: both sexes, Boaer-cross, goat, intramuscular, 20 mg/kg bw; liver, 0.5 days after last dose, i.m., mean ± SD, 4 goats; read-out: Tissue concentration FF
READOUT_LABEL: concentration at 0.5 days (ng/g)
Report the value in ng/g with no unit label.

Q: Find the recorded concentration at 0.5 days belonging to CS(=O)(=O)c1ccc([C@@H](O)[C@@H](CF)NC(=O)C(Cl)Cl)cc1 and report it.
Ans: 2790

* * *

# EXPERIMENT: Tissue residue depletion in goats (LC-MS/MS)
# Assay type: in vivo, goats (Capra hircus)
# APPLIED_CONDITIONS: both sexes, Boaer-cross, goat, intramuscular, 20 mg/kg bw; kidney, 1 day after last dose, i.m., mean ± SD, 4 goats; read-out: Tissue concentration FF
# Description: In this study, a total of 54 Boaer-cross goats (Capra hircus) of both sexes, about 8 months old, were selected, weighing 28–36 kg. During the 1st week of acclimatization, all animals were raised in the usual way, with free access to feed and water. […] Throughout the experiment, all goats had ad libitum access to feed and water without antibiotics. […] The volume of the treatment solution was calculated individually for each goat to provide a dose equivalent to 20 mg FF/kg bw and 10 mg DOX/kg bw. […]
READOUT_LABEL: concentration at 1 day (ng/g)
Report the value in ng/g with no unit label.

Q: Find the recorded concentration at 1 day belonging to CS(=O)(=O)c1ccc([C@@H](O)[C@@H](CF)NC(=O)C(Cl)Cl)cc1 and report it.
Ans: 1770

* * *

# EXPERIMENT: Tissue residue depletion in goats (LC-MS/MS)
# Assay type: in vivo, goats (Capra hircus)
# APPLIED_CONDITIONS: both sexes, Boaer-cross, goat (Capra hircus), intramuscular, 20 mg FF/kg bw; liver, 14 days after last dose, i.m., mean ± SD, 4 goats
# Procedure: In this study, a total of 54 Boaer-cross goats (Capra hircus) of both sexes, about 8 months old, were selected, weighing 28–36 kg. During the 1st week of acclimatization, all animals were raised in the usual way, with free access to feed and water. […] Throughout the experiment, all goats had ad libitum access to feed and water without antibiotics. […] The volume of the treatment solution was calculated individually for each goat to provide a dose equivalent to 20 mg FF/kg bw and 10 mg DOX/kg bw. […]
READOUT_LABEL: concentration at 14 days after last dose (ng/g)
Report the value in ng/g with no unit label.

Q: Find the recorded concentration at 14 days after last dose belonging to CS(=O)(=O)c1ccc([C@@H](O)[C@@H](CF)NC(=O)C(Cl)Cl)cc1 [FF] and report it.
Ans: 179

* * *

# EXPERIMENT: Tissue residue depletion in goats (LC-MS/MS)
# Assay type: in vivo, goats (Capra hircus)
# APPLIED_CONDITIONS: both sexes, Boaer-cross, goat, intramuscular, 20 mg/kg bw; kidney, 21 days after last dose, i.m., mean ± SD, 4 goats; read-out: Tissue concentration FF
READOUT_LABEL: concentration at 21 days (ng/g)
Report the value in ng/g with no unit label.

Q: Find the recorded concentration at 21 days belonging to CS(=O)(=O)c1ccc([C@@H](O)[C@@H](CF)NC(=O)C(Cl)Cl)cc1 [FF] and report it.
Ans: 37.5

Where these numbers come from: paper PMC8558239
